Experimental Protocol: CCTE_Harrill_HTTr_Apoptosis_MCF7: CCTE's 6-hour Apoptosis Assessment for the High-Throughput Transcriptomics (HTTr) Platform, in MCF-7 cells cultured in DMEM + 10% fetal bovine serum, Harrill Lab (AID 2284011)
Calls of active or inactive are those of the source. Rule for the calls: active = hit-call score of the fitted dose curve at least 0.9, where 1 is the maximum; inactive = score below 0.9.
Answer with one of the outcomes given here: active, inactive

Problem: What outcome does the record of this test show for O=C(O)c1ccccc1C(=O)OCc1ccccc1 ?
Solution: inactive

Problem: In this assay, the call recorded for CC[C@@H]1C[C@H](N(Cc2cc(C(F)(F)F)cc(C(F)(F)F)c2)C(C)=O)c2cc(C(F)(F)F)ccc2N1C(=O)OC(C)C was what?
Solution: inactive

Problem: Hey, what did the test say about CCOC(=O)O[C@H](C)OC(=O)c1ccc2c(c1)cc(C(=O)NC1CCN(C(C)C)CC1)n2Cc1cc(-c2ccc(Cl)s2)on1 ?
Solution: active

Problem: So what was the verdict on Cc1c2ccccc2c(C)c2c1ccc1ccccc12 in this test?
Solution: inactive

Problem: Each molecule tested received a call. Report the one for CCN(Cc1cccc(S(=O)(=O)O)c1)c1ccc(C(=C2C=CC(=[N+](CC)Cc3cccc(S(=O)(=O)O)c3)C=C2)c2ccccc2S(=O)(=O)[O-])cc1 .
Solution: inactive

Problem: Please state the recorded outcome for this molecule: CC(C)(c1cc(Br)c(O)c(Br)c1)c1cc(Br)c(O)c(Br)c1
Solution: inactive

Problem: Record lookup: outcome of this test for CC1(C)NC(=O)N(c2ccc([N+](=O)[O-])c(C(F)(F)F)c2)C1=O ?
Solution: inactive

Problem: // outcome(item) with item = Cc1cc(F)ccc1-c1cc(N2CC[C@@H](O)[C@H]2CO)ncc1N(C)C(=O)C(C)(C)c1cc(C(F)(F)F)cc(C(F)(F)F)c1
Solution: inactive

Problem: // return assay outcome for OC12N=C(c3ccccc3)SC1Cc1cc(Cl)ccc12 (stereo unspecified)
Solution: inactive

Problem: Answer briefly: the call reported for CCCCOC(=O)CC(CC(=O)OCCCC)(OC(C)=O)C(=O)OCCCC in this assay.
Solution: inactive

Problem: What outcome does the record of this test show for CCCOC(=O)c1cc(O)c(O)c(O)c1 ?
Solution: inactive

Problem: What did this assay record as the result for COCC(C)OCC(C)OCC(C)O (stereo unspecified) ?
Solution: inactive

Problem: // return assay outcome for O=CCCCC=O
Solution: inactive

Problem: GET /call?item= O=C(O)c1ccccc1-n1cc(C(=O)O)c(=O)c2cc(Nc3c(F)cc(F)cc3Cl)c(Cl)cc21 returns the recorded outcome of this test.
Solution: inactive

Problem: # outcome recorded in this test, key = CCCCCCCCCCCO
Solution: inactive

Problem: Recorded call for Clc1ccccc1C(c1ccccc1)(c1ccccc1)n1ccnc1 ?
Solution: inactive
